Experiment: Pharmacokinetic profile in male mice after intravenous and oral administration
Type: in vivo
Settings: mouse, plasma, intravenous and oral administration
Measured attribute: bioavailability (%)

Below: 4 compounds and their reported bioavailability.
# Compound, Unit text, bioavailability
measured = [
    ("C[C@@H](C(=O)NCCCN1CCCC1)c1ccc(OS(=O)(=O)C(F)(F)F)cc1.Cl", "%", 90),
    ("CC(C)Cc1ccc([C@@H](C)C(=O)NCCCN2CCCCC2)cc1 [reference compound]", "%", 30),
    ("CC(C)Cc1ccc([C@@H](C)C(=O)NS(C)(=O)=O)cc1 [reference compound]", "%", 80),
    ("C[C@@H](C(N)=O)c1ccc(OS(=O)(=O)C(F)(F)F)cc1", "%", 95),
]

A = CC(C)Cc1ccc([C@@H](C)C(N)=O)cc1 [reference compound]
B = C[C@@H](C(=O)NCCN1CCCC1)c1ccc(OS(=O)(=O)C(F)(F)F)cc1.Cl
// max by bioavailability over [ A , B ] Use the label to indicate which entry you chose.
B
(B: 80%, A: 35%)

----------
Assay: Pharmacokinetic profile in male mice after intravenous and oral administration
Assay type: in vivo
Settings: mouse, plasma
Measured attribute: half-life (h)

Below: 4 compounds and their reported half-life.
# Compound, Unit text, half-life
measured = [
    ("CC(C)Cc1ccc([C@@H](C)C(=O)NS(C)(=O)=O)cc1 [reference compound]", "h", 0.4),
    ("C[C@@H](C(=O)[N-]S(C)(=O)=O)c1ccc(OS(=O)(=O)C(F)(F)F)cc1.[Na+]", "h", 24.7),
    ("C[C@@H](C(=O)NCCN1CCCC1)c1ccc(OS(=O)(=O)C(F)(F)F)cc1.Cl", "h", 3.4),
    ("CC(C)Cc1ccc([C@@H](C)C(=O)NCCCN2CCCCC2)cc1 [reference compound]", "h", 1.7),
]

A = C[C@@H](C(N)=O)c1ccc(OS(=O)(=O)C(F)(F)F)cc1
B = CC(C)Cc1ccc([C@@H](C)C(N)=O)cc1 [reference compound]
Look at A and B . Which one has the lower recorded half-life number? Use the label to indicate which entry you chose.
B

----------
Experiment: Protein binding in rat plasma (ultrafiltration)
Type: in vitro ADME
Conditions: 37° C.
Measured attribute: fraction unbound at 20 min, 50 μg/mL

Below: 4 compounds and their reported fraction unbound at 20 min, 50 μg/mL.
# Compound, fraction unbound at 20 min, 50 μg/mL
rows = [
    ("C[C@@H](C(=O)[N-]S(C)(=O)=O)c1ccc(OS(=O)(=O)C(F)(F)F)cc1.[Na+]", 0.01),
    ("C[C@@H](C(=O)NCCCN1CCCC1)c1ccc(OS(=O)(=O)C(F)(F)F)cc1.Cl", 0.359),
    ("CC(C)Cc1ccc([C@@H](C)C(N)=O)cc1 [reference compound]", 0.016),
    ("C[C@@H](C(N)=O)c1ccc(OS(=O)(=O)C(F)(F)F)cc1", 0.062),
]

a = C[C@@H](C(=O)NCCN1CCCC1)c1ccc(OS(=O)(=O)C(F)(F)F)cc1.Cl
b = CC(C)Cc1ccc([C@@H](C)C(=O)NCCCN2CCCCC2)cc1 [reference compound]
// max by fraction unbound at 20 min, 50 μg/mL over [ a , b ] Use the label to indicate which entry you chose.
a
